# particulars: 308.15 K; 50000 kPa; Liquid; Vibrating tube method

compound	unitText	mass density
CCCCOC [butyl methyl ether]	kg/m3	776.18
CC(C)CCOCCC(C)C [di-(3-methylbutyl) ether]	kg/m3	800.19
CCCCCOCCCCC [dipentyl ether]	kg/m3	806.55
CCCCOCC [butyl ethyl ether]	kg/m3	779.48
CCOC(C)(C)C [2-ethoxy-2-methylpropane]	kg/m3	773.76
COC(C)(C)C [2-methoxy-2-methylpropane]	kg/m3	773.49
CC(C)OC(C)C [diisopropyl ether]	kg/m3	759.01
CCCOCCC [dipropyl ether]	kg/m3	777.92

====

# particulars: 318.15 K; 20000 kPa; Liquid; Vibrating tube method
metricName: mass density (kg/m3)

molecule	unitText	endpointResult
CC(C)OC(C)C	kg/m3	723.27
CCCOCCC	kg/m3	745.32
CCCCOCC	kg/m3	747.31
CCCCOC	kg/m3	742.89
COC(C)(C)C	kg/m3	738.74
CC(C)CCOCCC(C)C	kg/m3	772.42
CCCCCOCCCCC	kg/m3	779.77
CCOC(C)(C)C	kg/m3	739.27

====

# particulars: 283.15 K; 20000 kPa; Liquid; Vibrating tube method
Recorded mass density values for a group of compounds are listed next.
metricName: mass density (kg/m3)

molecule	unitText	endpointResult
CCCCCOCCCCC	kg/m3	805.2
CCCCOCC	kg/m3	777.2
CC(C)CCOCCC(C)C	kg/m3	797.85
CCCCOC	kg/m3	773.91
CCOC(C)(C)C	kg/m3	770.36
CCCOCCC	kg/m3	775.62
COC(C)(C)C	kg/m3	770.32
CC(C)OC(C)C	kg/m3	754.49

====

# particulars: 313.15 K; 10000 kPa; Liquid; Vibrating tube method
Recorded mass density values for a group of compounds are listed next.
metricName: mass density (kg/m3)

compound	endpointResult
CCCCOCC [butyl ethyl ether]	741.76
CCCOCCC [dipropyl ether]	739.57
CC(C)CCOCCC(C)C [di-(3-methylbutyl) ether]	767.74
COC(C)(C)C [2-methoxy-2-methylpropane]	732.27
CCCCCOCCCCC [dipentyl ether]	775.57
CCOC(C)(C)C [2-ethoxy-2-methylpropane]	732.78
CCCCOC [butyl methyl ether]	737.11
CC(C)OC(C)C [diisopropyl ether]	716.16

====

# particulars: 328.15 K; 35000 kPa; Liquid; Vibrating tube method
metricName: mass density (kg/m3)

compound	endpointResult
CCCOCCC [dipropyl ether]	750.85
CCOC(C)(C)C [2-ethoxy-2-methylpropane]	745.64
CCCCCOCCCCC [dipentyl ether]	783.75
CCCCOC [butyl methyl ether]	748.41
CC(C)OC(C)C [diisopropyl ether]	730.4
CC(C)CCOCCC(C)C [di-(3-methylbutyl) ether]	777.06
CCCCOCC [butyl ethyl ether]	752.68

====

# particulars: 298.15 K; 20000 kPa; Liquid; Vibrating tube method
Recorded mass density values for a group of compounds are listed next.

molecule	unitText	mass density
CCOC(C)(C)C	kg/m3	757.08
CCCCOC	kg/m3	760.68
CCCOCCC	kg/m3	762.57
CC(C)OC(C)C	kg/m3	741.13
CCCCCOCCCCC	kg/m3	794.27
CCCCOCC	kg/m3	764.43
COC(C)(C)C	kg/m3	756.85
CC(C)CCOCCC(C)C	kg/m3	786.94

====

Recorded mass density values for a group of compounds are listed next.
# particulars: 318.15 K; 5000 kPa; Liquid; Vibrating tube method

molecule	mass density [kg/m3]
CCCCOC	726.46
CC(C)OC(C)C	704.53
CC(C)CCOCCC(C)C	759.27
CCCCOCC	731.57
CCCCCOCCCCC	767.42
CCCOCCC	729.04
CCOC(C)(C)C	721.59
COC(C)(C)C	720.92

====

Recorded mass density values for a group of molecules are listed next.
# particulars: 283.15 K; 60000 kPa; Liquid; Vibrating tube method
metricName: mass density (kg/m3)

molecule	metricName	endpointResult
CCOC(C)(C)C	mass density	799.33
CCCCCOCCCCC	mass density	828.06
CCCCOC	mass density	801.68
CC(C)CCOCCC(C)C	mass density	821.82
CCCOCCC	mass density	802.99
CCCCOCC	mass density	804.23
COC(C)(C)C	mass density	799.29
CC(C)OC(C)C	mass density	784.88

====

Recorded mass density values for a group of compounds are listed next.
# particulars: 318.15 K; 35000 kPa; Liquid; Vibrating tube method

compound	unitText	mass density
COC(C)(C)C [2-methoxy-2-methylpropane]	kg/m3	753.35
CCCCOC [butyl methyl ether]	kg/m3	756.62
CCCCOCC [butyl ethyl ether]	kg/m3	760.54
CC(C)OC(C)C [diisopropyl ether]	kg/m3	738.49
CCOC(C)(C)C [2-ethoxy-2-methylpropane]	kg/m3	753.76
CCCOCCC [dipropyl ether]	kg/m3	758.76
CCCCCOCCCCC [dipentyl ether]	kg/m3	790.52
CC(C)CCOCCC(C)C [di-(3-methylbutyl) ether]	kg/m3	783.75

====

# particulars: 303.15 K; 65000 kPa; Liquid; Vibrating tube method

molecule	mass density [kg/m3]
CCCCOCC [butyl ethyl ether]	792.89
CC(C)CCOCCC(C)C [di-(3-methylbutyl) ether]	812.01
CCCCOC [butyl methyl ether]	790
CC(C)OC(C)C [diisopropyl ether]	773.7
CCCOCCC [dipropyl ether]	791.45
CCCCCOCCCCC [dipentyl ether]	818.05
CCOC(C)(C)C [2-ethoxy-2-methylpropane]	787.89
COC(C)(C)C [2-methoxy-2-methylpropane]	787.7

====

# particulars: 328.15 K; 100 kPa; Liquid; Vibrating tube method
Numbers after ± are expanded uncertainties.
Recorded mass density values for a group of compounds are listed next.
metricName: mass density

molecule	endpointResult
CCCCOCC	715.37 ± 0.3 kg/m3
CCCOCCC	712.59 ± 0.3 kg/m3
CCOC(C)(C)C	703.95 ± 0.3 kg/m3
CC(C)OC(C)C	686.17 ± 0.3 kg/m3
CCCCCOCCCCC	754.6 ± 0.3 kg/m3
CCCCOC	709.45 ± 0.3 kg/m3
CC(C)CCOCCC(C)C	746.03 ± 0.3 kg/m3

====

# particulars: 318.15 K; 50000 kPa; Liquid; Vibrating tube method

molecule	unitText	mass density
CC(C)CCOCCC(C)C [di-(3-methylbutyl) ether]	kg/m3	793.81
CCCCOCC [butyl ethyl ether]	kg/m3	772.07
CCCCOC [butyl methyl ether]	kg/m3	768.51
COC(C)(C)C [2-methoxy-2-methylpropane]	kg/m3	765.83
CC(C)OC(C)C [diisopropyl ether]	kg/m3	751.47
CCCOCCC [dipropyl ether]	kg/m3	770.47
CCOC(C)(C)C [2-ethoxy-2-methylpropane]	kg/m3	766.19
CCCCCOCCCCC [dipentyl ether]	kg/m3	800.1

====

Recorded mass density values for a group of compounds are listed next.
# particulars: 288.15 K; 40000 kPa; Liquid; Vibrating tube method
metricName: mass density (kg/m3)

molecule	metricName	unitText	endpointResult
CCCOCCC	mass density	kg/m3	786.26
CC(C)CCOCCC(C)C	mass density	kg/m3	807.23
CC(C)OC(C)C	mass density	kg/m3	766.92
COC(C)(C)C	mass density	kg/m3	781.89
CCCCOC	mass density	kg/m3	784.79
CCCCOCC	mass density	kg/m3	787.77
CCOC(C)(C)C	mass density	kg/m3	781.97
CCCCCOCCCCC	mass density	kg/m3	813.93

====

# particulars: 298.15 K; 65000 kPa; Liquid; Vibrating tube method
Numbers after ± are expanded uncertainties.

molecule	mass density
CCOC(C)(C)C	791.48 ± 0.76 kg/m3
CC(C)OC(C)C	777.14 ± 0.8 kg/m3
CCCCOC	793.65 ± 0.76 kg/m3
CCCCOCC	796.44 ± 0.75 kg/m3
CCCCCOCCCCC	821.19 ± 0.68 kg/m3
CC(C)CCOCCC(C)C	815.07 ± 0.7 kg/m3
CCCOCCC	795.06 ± 0.75 kg/m3
COC(C)(C)C	791.36 ± 0.76 kg/m3

====

Recorded mass density values for a group of compounds are listed next.
# particulars: 313.15 K; 45000 kPa; Liquid; Vibrating tube method

compound	unitText	mass density
CCCCOC [butyl methyl ether]	kg/m3	768.63
COC(C)(C)C [2-methoxy-2-methylpropane]	kg/m3	765.77
CCCCCOCCCCC [dipentyl ether]	kg/m3	800.28
CCOC(C)(C)C [2-ethoxy-2-methylpropane]	kg/m3	766.08
CC(C)CCOCCC(C)C [di-(3-methylbutyl) ether]	kg/m3	793.81
CCCCOCC [butyl ethyl ether]	kg/m3	772.14
CCCOCCC [dipropyl ether]	kg/m3	770.47
CC(C)OC(C)C [diisopropyl ether]	kg/m3	751.2
